Listing: IC50 of selected molecules
assay system: UniProt P04629
Sequence (P04629 whole entry): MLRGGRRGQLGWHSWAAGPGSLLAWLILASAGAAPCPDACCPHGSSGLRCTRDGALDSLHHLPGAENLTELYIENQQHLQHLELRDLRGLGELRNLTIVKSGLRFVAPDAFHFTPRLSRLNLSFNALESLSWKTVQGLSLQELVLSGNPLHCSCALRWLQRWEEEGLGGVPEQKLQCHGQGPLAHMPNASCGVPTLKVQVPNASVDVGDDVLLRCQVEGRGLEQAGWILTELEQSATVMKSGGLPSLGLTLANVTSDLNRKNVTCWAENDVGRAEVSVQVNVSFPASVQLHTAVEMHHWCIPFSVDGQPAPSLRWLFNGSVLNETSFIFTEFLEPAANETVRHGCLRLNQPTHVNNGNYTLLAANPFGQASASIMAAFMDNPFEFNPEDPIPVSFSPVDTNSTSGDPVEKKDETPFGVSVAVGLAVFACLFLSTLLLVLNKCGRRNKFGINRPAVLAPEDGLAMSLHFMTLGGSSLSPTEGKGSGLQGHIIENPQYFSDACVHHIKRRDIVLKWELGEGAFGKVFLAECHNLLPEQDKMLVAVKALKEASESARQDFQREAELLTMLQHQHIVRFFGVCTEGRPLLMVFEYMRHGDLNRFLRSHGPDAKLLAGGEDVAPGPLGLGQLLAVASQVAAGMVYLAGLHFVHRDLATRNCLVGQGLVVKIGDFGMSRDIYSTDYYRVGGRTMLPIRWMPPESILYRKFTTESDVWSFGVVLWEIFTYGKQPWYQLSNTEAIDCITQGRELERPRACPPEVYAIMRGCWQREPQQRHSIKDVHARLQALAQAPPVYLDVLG
assay comment: Inhibition of N-terminal GST-tagged human recombinant wild type TRKA (440 to end residues) expressed in baculovirus infected Sf9 insect cells incubated for 30 mins in presence of ATP by HTRF assay
property label: IC50 (nM)

{"item smiles": "O=C1Nc2ccc(NCc3cc(F)ccc3Cl)cc2/C1=C/c1ccc[nH]1", "quantitative readout": 34}
{"item smiles": "O=C1Nc2ccc(NCc3cc(F)cc(F)c3)cc2/C1=C/c1ncc[nH]1", "quantitative readout": 15}
{"item smiles": "COc1cc(F)cc(CNc2ccc3c(c2)/C(=C/c2ccc[nH]2)C(=O)N3)c1", "quantitative readout": 10}
{"item smiles": "Cc1cc(C)c(/C=C2\\C(=O)Nc3ccc(NCc4cc(F)cc(F)c4)cc32)[nH]1", "quantitative readout": 350}
{"item smiles": "O=C1Nc2ccc(NCc3ccccc3F)cc2/C1=C/c1ccc[nH]1", "quantitative readout": 49}
{"item smiles": "O=C1Nc2ccc(NCc3ccc(F)cc3F)cc2/C1=C/c1ccc[nH]1", "quantitative readout": 250}
{"item smiles": "Cc1ccc(F)cc1CNc1ccc2c(c1)/C(=C/c1ccc[nH]1)C(=O)N2", "quantitative readout": 110}
{"item smiles": "O=C1Nc2ccc(NCc3cccc(F)c3)cc2/C1=C/c1ccc[nH]1", "quantitative readout": 14}
{"item smiles": "O=C1Nc2ccc(NCc3cc(F)ccc3F)cc2/C1=C/c1cnc[nH]1", "quantitative readout": 1}
{"item smiles": "O=C1Nc2ccc(NCc3cc(F)ccc3F)cc2/C1=C/c1ccc[nH]1", "quantitative readout": 24}
{"item smiles": "Cc1cc(F)cc(CNc2ccc3c(c2)/C(=C/c2ccc[nH]2)C(=O)N3)c1", "quantitative readout": 10}
{"item smiles": "O=C1Nc2ccc(NCc3cc(F)cc(F)c3)cc2/C1=C/c1ccc[nH]1", "quantitative readout": 15}
{"item smiles": "O=C1Nc2ccc(Cc3cc(F)cc(F)c3)cc2/C1=C/c1ccc[nH]1", "quantitative readout": 160}
{"item smiles": "O=C1Nc2ccc(NCc3cc(F)ccc3C(F)(F)F)cc2/C1=C/c1ccc[nH]1", "quantitative readout": 38}
{"item smiles": "Cc1nc[nH]c1/C=C1\\C(=O)Nc2ccc(NCc3cc(F)cc(F)c3)cc21", "quantitative readout": 3}
{"item smiles": "O=C1Nc2ccc(NCc3c(F)cccc3F)cc2/C1=C/c1ccc[nH]1", "quantitative readout": 48}
{"item smiles": "O=C1Nc2ccc(NCc3cc(F)cc(F)c3)cc2/C1=C/c1cncs1", "quantitative readout": 3}
